Below, each of the compounds is paired with its reported melting point value.

1. Cc1c(C(C)(C)C)s/c(=N\C(=O)c2cc(F)ccc2Br)n1C ... 161 to 162 °C

Note down melting point recorded for Cc1c(C(C)(C)C)s/c(=N\C(=O)c2nc(Cl)ccc2Cl)n1CC1CC1 143 to 145 °C

# return recorded melting point for entry Cc1ccc(C(=O)/N=c2\cc(C(C)(C)C)n(C)n2CC2CC2)c(Br)c1 153 to 154 °C

---

Measured pIC50 values are reported for all entries that follow.
Molecular target: human CB2 receptor (Homo sapiens, UniProt P34972)
Construct: expressed in transfected cells
Sequence (P34972 whole entry): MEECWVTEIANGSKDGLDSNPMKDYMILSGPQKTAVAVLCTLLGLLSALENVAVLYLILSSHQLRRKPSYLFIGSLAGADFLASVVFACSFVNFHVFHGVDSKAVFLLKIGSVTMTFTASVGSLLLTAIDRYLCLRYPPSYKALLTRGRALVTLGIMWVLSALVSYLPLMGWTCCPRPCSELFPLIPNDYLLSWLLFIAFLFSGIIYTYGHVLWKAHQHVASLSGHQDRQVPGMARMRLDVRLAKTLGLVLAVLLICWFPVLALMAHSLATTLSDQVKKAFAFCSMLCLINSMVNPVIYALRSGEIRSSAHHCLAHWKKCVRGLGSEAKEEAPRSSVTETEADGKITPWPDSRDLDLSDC
Assay: Human CB2 receptor binding inhibition test ([3H]CP-55,940, CHO membrane fractions)
Conditions: [3H]CP-55,940, membrane fractions of CHO cells stably expressing human CB2 receptor, 25° C., 2 hours; read-out: CB2 IC50 (Inhibition of binding to human CB2 receptor)
Description: Human CB2 Receptor Binding Inhibition Test […] After the filtrate was washed with an assay buffer containing 0.1% bovine serum albumin, the radioactivity on the glass filter was measured by a liquid scintillation counter. Nonspecific binding was measured in the presence of 2.0 μM CP-55,940 (manufactured by Tocris). […]
Conceptually, pIC50 converts a concentration in mol/L into minus its log10.

Known pIC50 results, listed for orientation:
1. Cc1c(C(C)(C)C)s/c(=N\C(=O)c2cccc(OC(F)(F)F)c2)n1CC1CC1 ... 8.12
2. Cn1c(C(C)(C)C)c/c(=N\C(=O)c2cccc(C(F)(F)F)c2F)n1CC1CC1 ... 8.31
3. COc1ccc(C(=O)/N=c2\sc(C(C)(C)C)c(C)n2CC2CC2)c(OC)c1OC ... 7.90
4. Cc1c(C(C)(C)C)s/c(=N\C(=O)C2=C(NCCO)C=CC(C(F)(F)F)C2)n1CC1CC1 (stereo not shown) ... 8.30
5. Cc1c(C(C)(C)C)s/c(=N\C(=O)c2ccccc2C(C)C)n1CC1CC1 ... 9.52

Give pIC50 for Cc1cccc(C(=O)/N=c2\sc(C(C)(C)C)c(C)n2CC2CC2)c1I 9.40

Assign pIC50 to the following record: CCn1c(C(C)(C)C)c/c(=N\C(=O)c2cccc(C(F)(F)F)c2F)n1CC1CC1 8.20

Please supply the value of reported pIC50 for the item COCCCn1c(C)c(C)s/c1=N\C(=O)c1cccc(C(F)(F)F)c1F 8.77

Identify the reported pIC50 for the following entry. COc1ccc(OC)c(C(=O)/N=c2\sc(C)c(C)n2CC2CC2)c1 7.75

Identify measured pIC50 corresponding to COc1ccc(Cl)cc1C(=O)/N=c1\sc(C(C)(C)C)c(C)n1CC1CC1 9.00
